Target: sGC α1/β1 heterodimer stably expressed in CHO-K1 cell line (CHO-K1/sGC) (Homo sapiens, UniProt Q02108+Q02153)
Construct: expressed in transfected cells
Sequence (Q02108 whole entry): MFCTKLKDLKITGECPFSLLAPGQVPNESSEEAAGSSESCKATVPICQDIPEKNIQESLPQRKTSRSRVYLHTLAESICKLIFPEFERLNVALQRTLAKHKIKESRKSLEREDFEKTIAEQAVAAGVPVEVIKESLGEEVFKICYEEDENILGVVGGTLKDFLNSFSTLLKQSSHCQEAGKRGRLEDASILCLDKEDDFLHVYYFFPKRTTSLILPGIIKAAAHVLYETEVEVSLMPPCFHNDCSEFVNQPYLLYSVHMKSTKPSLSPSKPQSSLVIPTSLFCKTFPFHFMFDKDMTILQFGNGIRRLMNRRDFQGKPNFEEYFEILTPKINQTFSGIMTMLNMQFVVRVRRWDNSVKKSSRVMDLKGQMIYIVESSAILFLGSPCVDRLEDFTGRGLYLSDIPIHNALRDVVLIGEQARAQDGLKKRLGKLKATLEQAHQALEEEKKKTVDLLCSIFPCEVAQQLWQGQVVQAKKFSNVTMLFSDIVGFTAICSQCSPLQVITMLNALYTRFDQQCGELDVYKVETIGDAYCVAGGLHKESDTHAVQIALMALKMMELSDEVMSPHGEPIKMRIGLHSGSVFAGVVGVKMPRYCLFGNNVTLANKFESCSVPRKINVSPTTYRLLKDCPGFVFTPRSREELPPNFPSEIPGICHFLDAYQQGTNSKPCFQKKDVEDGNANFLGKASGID
Sequence (Q02153 whole entry): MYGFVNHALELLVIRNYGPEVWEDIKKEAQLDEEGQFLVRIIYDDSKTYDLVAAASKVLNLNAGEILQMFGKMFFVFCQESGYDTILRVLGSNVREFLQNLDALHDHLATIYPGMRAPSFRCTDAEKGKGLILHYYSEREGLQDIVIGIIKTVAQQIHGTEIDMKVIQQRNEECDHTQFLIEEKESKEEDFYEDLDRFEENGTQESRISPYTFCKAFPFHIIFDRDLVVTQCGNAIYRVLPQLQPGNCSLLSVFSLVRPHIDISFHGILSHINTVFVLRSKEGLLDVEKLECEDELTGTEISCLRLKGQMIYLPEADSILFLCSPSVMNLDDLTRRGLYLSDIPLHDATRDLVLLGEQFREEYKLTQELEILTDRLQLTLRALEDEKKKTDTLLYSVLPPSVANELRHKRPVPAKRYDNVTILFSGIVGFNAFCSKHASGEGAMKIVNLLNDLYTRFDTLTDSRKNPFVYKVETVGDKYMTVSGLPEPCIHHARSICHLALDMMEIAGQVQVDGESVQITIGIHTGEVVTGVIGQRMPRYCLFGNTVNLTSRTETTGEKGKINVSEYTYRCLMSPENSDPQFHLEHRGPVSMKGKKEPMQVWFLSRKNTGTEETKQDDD
Assay: Cell-based sGC Functional Assay (CASA Assay), cGMP generation
Details: CHO-K1/sGC cells, 1 hr at 37° C., cGMP by HTRF, 4P fit; presence or absence of 1 μM DETA-NO not given; read-out: IP (nM) (inflection point)
Experimental: sGC is a heme-containing enzyme that converts GTP to secondary messenger cGMP. Increases in cGMP levels affect several physiological processes including vasorelaxation through multiple downstream pathways. […] [drawing 300] […] The test compounds' activities were then expressed as a percentage of Compound A, the standard in every experiment. This percent activation was calculated either in the presence or absence of DETA-NO which was then plotted. […]
Mark 1.0 for EC50 under 500 nM, 0.0 if at or over.

Field: below-cutoff. Rule: recorded EC50 strictly less than 500 nM. Subject: CC1(c2ccc(C(F)(F)F)cc2)C(=O)Nc2nc(-c3cn4ncnc4c(CCCC(F)(F)F)n3)nc(O)c21 (stereo not shown) [Example 137B]
0.0

Now the same for CC1(c2ccc(C(F)F)cn2)C(=O)Nc2nc(-c3cn4ncnc4c(CCCC(F)(F)F)n3)nc(O)c21 (stereo not shown) [Example 181A]
0.0

Now the same for Nc1nc(-c2cn3ncnc3c(CCC(F)(F)C(F)(F)F)n2)nc2c1C(c1cncc(F)c1)(C1CC1)C(=O)N2 (stereo not shown)
1.0

Now the same for Nc1nc(-c2cn3ncnc3c(CCCC(F)(F)F)n2)nc2c1C(c1ccc(C(F)F)cn1)(C1CC1)C(=O)N2 (racemic) [Example 44B]
1.0

Now the same for CC1(c2cncc(F)c2)C(=O)Nc2nc(-c3cn4ncnc4c(CCC(F)(F)C(F)(F)F)n3)nc(O)c21 (stereo not shown) [Example 125A]
0.0

Now the same for Cc1nc2c(CCC(F)(F)C(F)(F)F)nc(-c3nc(N)c4c(n3)NC(=O)C4(C)c3ccc(F)cn3)cn2n1 (stereo not shown) [Example 89B]
1.0

---

target: sGC α1/β1 heterodimer stably expressed in CHO-K1 cell line (CHO-K1/sGC) (Homo sapiens, UniProt Q02108+Q02153); construct: expressed in transfected cells; test: Cell-based sGC Functional Assay (CASA Assay), cGMP generation; conditions: CHO-K1/sGC cells, 1 hr at 37° C., cGMP by HTRF, 4P fit; presence or absence of 1 μM DETA-NO not given; read-out: IP (nM) (inflection point)
// thresholds for EC50 classes: low group (below 100 nM), middle group (100 nM to below 300 nM), high group (300 nM or more)

Lab note: sort C[C@@]1(c2ccc(F)cc2)C(=O)Nc2nc(-c3cn4ncnc4c(CCCC(F)(F)F)n3)nc(N)c21 [Example 23A] into the matching EC50 band.
low group

Now the same for Nc1nc(-c2cn3ncnc3c(CCC(F)(F)F)n2)nc2c1C(c1ccc(Cl)cn1)(C1CC1)C(=O)N2 (centres unmarked) [Example 82A]
high group

Now the same for NC(=O)c1nc(-c2cn3ncnc3c(CCCC(F)(F)F)n2)nc2c1C(c1ccc(C(F)(F)F)cn1)(C1CC1)C(=O)N2 (centres unmarked) [Example 178A]
middle group

Now the same for CC1(c2ccc(Cl)cn2)C(=O)Nc2nc(-c3cn4ncnc4c(CCC(F)(F)C(F)(F)F)n3)ncc21 (centres unmarked) [Example 175A]
high group

Now the same for Nc1nc(-c2cn3ncnc3c(CCC(F)(F)C(F)(F)F)n2)nc2c1C(c1cn(C3CC3)nn1)(C1CC1)C(=O)N2 (centres unmarked) [Example 96B]
middle group

Now the same for CC1(c2ccc(O)cn2)C(=O)Nc2nc(-c3cn4ncnc4c(CCC(F)(F)C(F)(F)F)n3)nc(N)c21 (centres unmarked) [Example 110A]
middle group

Now the same for O=C1Nc2nc(-c3cn4ncnc4c(CCC(F)(F)C(F)(F)F)n3)nc(O)c2C1(c1ccc(F)c(F)c1)C1CC1 (centres unmarked) [Example 123A]
middle group

Now the same for CC1(c2ccc(C(F)(F)F)cn2)C(=O)Nc2nc(-c3cn4ncnc4c(CCC(F)(F)F)n3)nc(N)c21 (centres unmarked) [Example 78B]
high group

Now the same for CC(F)(F)c1ccc(C2(C)C(=O)Nc3nc(-c4cn5ncnc5c(CCC(F)(F)C(F)(F)F)n4)nc(N)c32)cn1 (racemic) [Example 16B]
low group

Now the same for CC1(c2ccc(F)c(F)c2)C(=O)Nc2nc(-c3cn4ncnc4c(CCCC(F)(F)F)n3)nc(O)c21 (centres unmarked) [Example 146B]
low group

Now the same for Nc1nc(-c2cn3ncnc3c(CCCC(F)(F)F)n2)nc2c1C(c1nnc(C3CC3)o1)(C1CC1)C(=O)N2 (centres unmarked) [Example 104A]
middle group

Now the same for CC1(c2cccc(F)c2)C(=O)Nc2nc(-c3cn4ncnc4c(CCC(F)(F)C(F)(F)F)n3)nc(O)c21 (centres unmarked) [Example 129B]
low group

Now the same for CCCc1nc(-c2nc(N)c3c(n2)NC(=O)C3(C)c2ccc(F)cn2)cn2ncnc12 (centres unmarked) [Example 54B]
high group

---

biological target: sGC α1/β1 heterodimer stably expressed in CHO-K1 cell line (CHO-K1/sGC) (Homo sapiens, UniProt Q02108+Q02153); construct: expressed in transfected cells; assay: Cell-based sGC Functional Assay (CASA Assay), cGMP generation; conditions: CHO-K1/sGC cells, 1 hr at 37° C., cGMP by HTRF, 4P fit; presence or absence of 1 μM DETA-NO not given; read-out: IP (nM) (inflection point)
Would you kindly list log10 of EC50 for each of these molecules?
Base-10 log of EC50, unit nM.

Could you tell me which log10 of EC50 is on file for Nc1nc(-c2cn3ncnc3c(CCCC(F)(F)F)n2)nc2c1C(c1ncc(Cl)cn1)(C1CC1)C(=O)N2 (stereo not drawn) [Example 41A] ?
1.44

Now the same for CC1(c2ccccn2)C(=O)Nc2nc(-c3cn4ncnc4c(CCC(F)(F)C(F)(F)F)n3)nc(O)c21 (stereo not drawn) [Example 127B]
3.10

Now the same for CC1(c2ccc(F)cn2)C(=O)Nc2nc(-c3cn4ncnc4c(CCC(F)(F)C(F)(F)F)n3)nc(O)c21 (stereo not drawn) [Example 122B]
2.15

Now the same for CC1(c2ccc(F)cn2)C(=O)Nc2nc(-c3cn4ncnc4c(CCC(F)(F)F)n3)nc(N)c21 (stereo not drawn) [Example 81B]
2.84

Now the same for CCCc1nc(-c2nc(O)c3c(n2)NC(=O)C3(c2ccc(F)c(F)c2)C2CC2)cn2ncnc12 (stereo not drawn) [Example 167A]
3.04

Now the same for C[C@@]1(c2ccc(F)cc2)C(=O)Nc2nc(-c3cn4ncnc4c(Cc4cccc(O)c4)n3)nc(N)c21 [Example 113B]
2.88

Now the same for COc1cccc(Cc2nc(-c3nc(N)c4c(n3)NC(=O)[C@@]4(C)c3ccc(F)cc3)cn3ncnc23)c1 [Example 86B]
1.42

Now the same for Cc1ccc(C2(C3CC3)C(=O)Nc3nc(-c4cn5ncnc5c(CCC(F)(F)C(F)(F)F)n4)nc(N)c32)nc1 (racemic) [Example 17B]
1.56

Now the same for Nc1nc(-c2cn3ncnc3c(CCCC(F)(F)F)n2)nc2c1C(c1ccc(Cl)cc1)(C1CC1)C(=O)N2 (stereo not drawn) [Example 31B]
1.11

Now the same for CC1(c2cn(C3CC3)nn2)C(=O)Nc2nc(-c3cn4ncnc4c(CCC(F)(F)C(F)(F)F)n3)nc(N)c21 (stereo not drawn) [Example 95B]
2.41

Now the same for CC1(c2ccc(Cl)cc2)C(=O)Nc2nc(-c3cn4ncnc4cn3)nc(N)c21 (stereo not drawn) [Example 94A]
1.90

Now the same for COc1ccc(C2(C)C(=O)Nc3nc(-c4cn5ncnc5c(CCCC(F)(F)F)n4)nc(N)c32)nc1 (stereo not drawn) [Example 40A]
2.00

Now the same for Nc1nc(-c2cn3ncnc3c(CCC(F)(F)F)n2)nc2c1C(c1ccc(C(F)(F)F)cn1)(C1CC1)C(=O)N2 (stereo not drawn) [Example 80A]
3.40

Now the same for CCCCc1nc(-c2nc(O)c3c(n2)NC(=O)C3(C)c2ccc(Cl)cc2)cn2ncnc12 (stereo not drawn) [Example 157A]
1.86

Now the same for C[C@@]1(c2ccc(F)cc2)C(=O)Nc2nc(-c3cn4ncnc4c(CCC(F)(F)C(F)(F)F)n3)nc(C(N)=O)c21 [Example 177A]
2.11

---

Would you kindly list half-life for each of these molecules?
assay: IV Cassette PK Assay in rats; type: in vivo; conditions: rat, male Wistar-Han rats, plasma, LC-MS/MS, read-out: Cassette PK T1/2 (converted)

Could you tell me which half-life is on file for CC1(c2ccc(F)cn2)C(=O)Nc2nc(-c3cn4ncnc4c(CCC(F)(F)C(F)(F)F)n3)nc(N)c21 (stereo not shown) ?
2.97 h

Now the same for CC1(c2ccc(F)cc2)C(=O)Nc2nc(-c3cn4ccnc4c(CCC(F)(F)C(F)(F)F)n3)nc(N)c21 (stereo not shown) [reference compound]
1.04 h

Now the same for Nc1nc(-c2cn3ncnc3c(CCCC(F)(F)F)n2)nc2c1C(c1ccc(C(F)F)cn1)(C1CC1)C(=O)N2 (racemic) [Example 44B]
3.94 h

Now the same for `C[C@@]1(c2ccc(F)cc2)C(=O)Nc2nc(-c3cn4ncnc4c(CCC(F)(F)C(F)(F)F)n3)nc(N)c21`
3.35 h
